Data provenance is patent US20170087174A1.

Assay: PK of single agents vs fixed dose combinations (FDC), single oral dose in healthy volunteers
Type: in vivo, human
Settings: human, plasma, oral, Arm 2: FDC02, SMV 100 mg + ODV 50 mg (ODV/HPMC-AS L 1/1 w/w) + Compound (III) 800 mg; read-out: Cmax (mean ± SD)
Let's look at some molecules and their measured Cmax.
readout_label: Cmax (ng/mL)

INSERT INTO results (molecule, quantitative_result) VALUES
  ('C[C@]1(O)[C@H](n2ccc(=O)[nH]c2=O)O[C@](F)(CO)[C@H]1O', 681),
  ('C[C@H](NP(=O)(O)OC[C@@]1(F)O[C@@H](n2ccc(=O)[nH]c2=O)[C@](C)(O)[C@@H]1O)C(=O)O', 163),
  ('COC(=O)N[C@H](C(=O)N1[C@H](c2nc3cc(-c4cc5ccc4CCc4ccc(c(-c6ccc7[nH]c([C@@H]8C[C@@H]9CCCC[C@@H]9N8C(=O)[C@@H](NC(=O)OC)C(C)C)nc7c6)c4)CC5)ccc3[nH]2)C[C@@H]2CCCC[C@@H]21)C(C)C', 151),
  ('COc1ccc2c(O[C@@H]3C[C@H]4C(=O)N[C@]5(C(=O)NS(=O)(=O)C6CC6)C[C@H]5/C=C\CCCCN(C)C(=O)[C@@H]4C3)cc(-c3nc(C(C)C)cs3)nc2c1C [SMV, Simeprevir, reference compound]', 942);
